Test system: iCell cardiomyocytes (human iPSC-derived cardiomyocytes)
protocol-description: Intracellular Ca2+ flux / beating parameters in iCell cardiomyocytes (FLIPR tetra), 90 min or 24 h
Assay type: cell-based
conditions: Homo sapiens, Cardiomyocyte, 24 h, 10.00 µM; 0.00 µM = 100.00; read-out: cm.spacing.cv.24hrs
experimental-readout: activity at 10 µM (%)

                     entry_smiles  experimental_readout  unit_descriptor  numeric_value
0  O=C1C=CC(=O)C(c2ccc(Cl)cc2)=C1     activity at 10 µM                %           63.9
1        Oc1ccc(-c2ccc(Cl)cc2)cc1     activity at 10 µM                %           51.4
2        Oc1cccc(-c2ccc(Cl)cc2)c1     activity at 10 µM                %           54.5
3       Clc1cccc(-c2cccc(Cl)c2)c1     activity at 10 µM                %           98.2

These measurements were taken from paper PMC7377239.
